Molecular target: human recombinant His6-SIRT1 or GST-SIRT1 (Homo sapiens, UniProt Q96EB6)
Construct: His6 or GST (two alternative purchased preparations, not both on one protein); purchased Sigma-Aldrich China (His6-SIRT1); Cayman Chemical (GST-SIRT1)
Sequence (Q96EB6 1-747): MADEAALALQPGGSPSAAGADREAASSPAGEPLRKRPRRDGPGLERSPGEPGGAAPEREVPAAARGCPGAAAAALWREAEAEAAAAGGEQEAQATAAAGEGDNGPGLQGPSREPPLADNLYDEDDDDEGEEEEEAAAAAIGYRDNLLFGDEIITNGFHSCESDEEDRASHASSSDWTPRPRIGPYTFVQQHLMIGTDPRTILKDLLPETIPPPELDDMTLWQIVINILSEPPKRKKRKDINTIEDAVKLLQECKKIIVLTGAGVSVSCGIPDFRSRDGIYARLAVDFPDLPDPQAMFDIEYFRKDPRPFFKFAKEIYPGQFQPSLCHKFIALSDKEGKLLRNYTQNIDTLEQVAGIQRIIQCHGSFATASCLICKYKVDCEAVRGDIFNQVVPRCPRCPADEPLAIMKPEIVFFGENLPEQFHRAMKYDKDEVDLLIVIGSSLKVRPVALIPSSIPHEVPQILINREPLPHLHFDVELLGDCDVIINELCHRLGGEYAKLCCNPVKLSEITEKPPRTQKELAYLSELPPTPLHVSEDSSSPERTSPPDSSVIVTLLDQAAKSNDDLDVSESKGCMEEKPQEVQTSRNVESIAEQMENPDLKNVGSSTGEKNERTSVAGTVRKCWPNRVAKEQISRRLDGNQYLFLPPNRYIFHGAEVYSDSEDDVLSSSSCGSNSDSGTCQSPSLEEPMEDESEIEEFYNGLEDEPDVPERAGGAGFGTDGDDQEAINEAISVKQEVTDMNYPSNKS
Experiment: HPLC-based sirtuin deacylation activity assay, SIRT1
Assay type: biochemical
Settings: substrate activity with SIRT1; 50 mM Hepes pH 8.0, 0.5 mM β-NAD+, SIRT1 243 nM, 37 °C, 5 min, HPLC 214 nm, Michaelis-Menten fit
Numbered stars: 1 amine (or outer) side, 2 acyl side, 3 side chain; on linkers, the order of the positions; unused ones are H or OH. Bridge positions count the residues as written; N and C are the ends. Peptide text beside a SMILES is read from it. * marks the point of attachment. Suberoyl(Gly)2 = O=C(CCCCCCC(=O)NCC(=O)[*:2])NCC(=O)[*:1]; Suberoyl = O=C(CCCCCCC(=O)[*:2])[*:1]; Myristoyl = CCCCCCCCCCCCCC(=O)*; Suc = O=C(CCC(=O)[*:2])[*:1]
measuredQuantity: KM (µM)
Answers are plain numbers, in µM.

Worked cases, KM given:
{"compound": "CSCC[C@H](NC(=O)[C@@H]1CCCCNC(=O)CCC(=O)NCCCC[C@H](NC(C)=O)C(=O)N[C@@H](CCCCN)C(=O)N[C@@H](CCCCNC(C)=O)C(=O)N1)C(N)=O [Compound 6] (Ac-KKK(Ac)KM-NH2; linker 1-4 via Suc)", "system": "human recombinant His6-SIRT1 or GST-SIRT1 (Homo sapiens, UniProt Q96EB6)", "measValue": 41.3}
{"compound": "CSCC[C@H](NC(=O)[C@@H]1CCCCNC(=O)CNC(=O)CCCCCCC(=O)NCC(=O)NCCCC[C@H](NC(C)=O)C(=O)N[C@@H](CCCCN)C(=O)N[C@@H](CCCCNC(C)=O)C(=O)N1)C(N)=O [Compound 5] (Ac-KKK(Ac)KM-NH2; linker 1-4 via Suberoyl(Gly)2)", "system": "human recombinant His6-SIRT1 or GST-SIRT1 (Homo sapiens, UniProt Q96EB6)", "measValue": 22.2}
{"compound": "CC(=O)NCCCC[C@@H]1NC(=O)[C@H](CCCCN)NC(=O)[C@@H](NC(C)=O)CCCCNC(=O)CNC(=O)CCCCCCC(=O)NCC(=O)NCCCC[C@@H](C(N)=O)NC1=O [Compound 8] (Ac-KKK(Ac)K-NH2; linker 1-4 via Suberoyl(Gly)2)", "system": "human recombinant His6-SIRT1 or GST-SIRT1 (Homo sapiens, UniProt Q96EB6)", "measValue": 42.2}

For the next question, use this compound.
// CCCCCCCCCCCCCC(=O)NCCCC[C@@H]1NC(=O)[C@H](CCCNC(=N)N)NC(=O)[C@@H](NC(C)=O)CCCCNC(=O)CCCCCCC(=O)NCCCC[C@@H](C(=O)N[C@H](C(N)=O)[C@@H](C)O)NC1=O [Compound 7] (Ac-KRK(Myristoyl)KT-NH2; linker 1-4 via Suberoyl) : KM value = 2.85
